# System: Sindbis virus
# experimental details: Antiviral activity against sindbis virus in Vero cell culture lines
# Format: functional
property measured: MIC

Known MIC results, listed for orientation:
compound=Nc1nccc2c1ncn2[C@@H]1O[C@H](CO)[C@@H](O)[C@H]1O property_measured=MIC reported_measurement="70 µg/mL"
compound=CC(C)(C)C(=O)OCn1nc([C@@H]2O[C@H](CO)[C@@H](O)[C@H]2O)c2ncnc(N)c21 property_measured=MIC reported_measurement="> 10 µg/mL"
compound="Nc1ncnc2c(C3O[C@H](CCl)[C@@H](O)[C@H]3O)n[nH]c12 (some centres undefined)" property_measured=MIC reported_measurement="> 100 µg/mL"

The observed MIC for Nc1ncnc2c1ncn2[C@@H]1O[C@H](CO)C[C@H]1O [CORDYCEPIN] when tested with Sindbis virus stands at > 100 µg/mL

The observed MIC for `Nc1nccc2ncn([C@H]3C[C@H](O)[C@@H](CO)O3)c12` when tested with Sindbis virus stands at > 400 µg/mL

====

# System: Sindbis virus
# experimental details: Antiviral activity against sindbis virus in Vero cell culture lines
# Assay type: functional
Form field: MIC (one value per entry).

compound="CC(=O)NC(CCSC[C@H]1OC(n2ccc3c(N)ncnc32)[C@H](O)[C@@H]1O)C(=O)O (some centres undefined)" property_measured=MIC reported_measurement="> 400 µg/mL"

The observed MIC for `Nc1ncnc2c1ccn2[C@@H]1O[C@H](CO)[C@@H](O)[C@H]1O` when tested with Sindbis virus stands at > 0.1 µg/mL

The observed MIC for `Nc1ncnc2c1ncn2[C@H]1C[C@H](O)[C@@H](CO)O1` when tested with Sindbis virus stands at > 200 µg/mL

The observed MIC for CC(C)(C)C(=O)ONC(CCSC[C@H]1OC(n2ccc3c(N)ncnc32)[C@H](O)[C@@H]1O)C(=O)OCC[Si](C)(C)C (some centres undefined) when tested with Sindbis virus stands at > 40 µg/mL

====

Form field: MIC (one value per entry).
# Tested on: Human respirovirus 3
# experimental details: Antiviral activity against parainfluenza virus type 3 in Vero cell culture lines
# Format: functional
Lab book: enter the figure in µg/mL, no units written.

molecule=Nc1ncnc2c1CCN2[C@@H]1O[C@H](CO)C[C@H]1O property_measured=MIC reported_measurement=7

Turning now to a further record.
The observed MIC for Nc1ncnc2c1ncn2C[C@H](O)CO [(S)-DHPA] when tested with Human respirovirus 3 stands at 10

====

Form field: MIC (one value per entry).
# Tested on: Sindbis virus
# experimental details: Antiviral activity against sindbis virus in Vero cell culture lines
# Type: functional

molecule="CC(C)OC(=O)C(CCSC[C@H]1OC(n2ccc3c(N)ncnc32)[C@H](O)[C@@H]1O)NC(=O)C(F)(F)F (stereo not given in full)" reported_measurement="> 70 µg/mL"
molecule="Nc1ncnc2c1ccn2C1O[C@H](CSCCC(NC(=O)C(F)(F)F)C(=O)O)[C@@H](O)[C@H]1O (stereo not given in full)" reported_measurement="> 400 µg/mL"
molecule=CC(C)(C)C(=O)OCn1nc([C@@H]2O[C@H](CO)C[C@H]2O)c2ncnc(N)c21 reported_measurement="> 100 µg/mL"
molecule=Nc1nccc2c1ncn2[C@@H]1O[C@H](CO)C[C@H]1O reported_measurement="> 100 µg/mL"

The observed MIC for `Nc1ncnc2c([C@H]3C[C@@H](O)[C@@H](CO)O3)n[nH]c12` when tested with Sindbis virus stands at > 400 µg/mL

====

# Tested on: Human respirovirus 3
# experimental details: Antiviral activity against parainfluenza virus type 3 in Vero cell culture lines
# Assay type: functional
property measured: MIC

Known MIC results, listed for orientation:
molecule="COC(=O)C(N)CCSC[C@H]1OC(n2ccc3c(N)ncnc32)[C@H](O)[C@@H]1O (stereo not given in full)" reported_measurement="> 200 µg/mL"
molecule="Nc1ncnc2c([C@@H]3O[C@H](CSCCC(N)C(=O)O)C[C@H]3O)n[nH]c12 (stereo not given in full)" reported_measurement="> 40 µg/mL"
molecule="CCCOC(=O)C(CCSC[C@H]1OC(n2ccc3c(N)ncnc32)[C@H](O)[C@@H]1O)NC(C)=O (stereo not given in full)" reported_measurement="20 µg/mL"
molecule=Nc1nccc2c1ncn2[C@@H]1O[C@H](CO)C[C@H]1O reported_measurement="> 100 µg/mL"
molecule="Nc1ncnc2c1ncn2[C@@H]1O[C@H](CO)C[C@H]1O [CORDYCEPIN]" reported_measurement="> 100 µg/mL"
molecule="CC(=O)NC(CCSC[C@H]1OC(n2ccc3c(N)ncnc32)[C@H](O)[C@@H]1O)C(=O)O (stereo not given in full)" reported_measurement="> 400 µg/mL"
molecule="CC(=O)NC(CCSC[C@H]1OC(n2ccc3c(N)ncnc32)[C@H](O)[C@@H]1O)C(=O)OC(C)C (stereo not given in full)" reported_measurement="> 100 µg/mL"
molecule="CCCOC(=O)C(CCSC[C@H]1OC(n2ccc3c(N)ncnc32)[C@H](O)[C@@H]1O)NC(=O)C(F)(F)F (stereo not given in full)" reported_measurement="70 µg/mL"

Entry `Nc1ncnc2c([C@H]3CC[C@@H](CCl)O3)n[nH]c12` ; MIC = > 200 µg/mL

Entry Nc1ncnc2c1ccn2[C@@H]1O[C@H](CO)[C@@H](O)[C@H]1O [TUBERCIDIN] ; MIC = 0.02 µg/mL

====

# Tested on: Human respirovirus 3
# experimental details: Antiviral activity against parainfluenza virus type 3 in Vero cell culture lines
# Assay type: functional
Form field: MIC (one value per entry).

Entry Nc1nccc2c1ncn2[C@@H]1O[C@H](CSCCC(N)C(=O)O)C[C@H]1O (some centres undefined) ; MIC = > 400 µg/mL

Entry `Nc1nccc2c1ncn2[C@H]1CC[C@@H](CO)O1` ; MIC = > 100 µg/mL

Entry CCCOC(=O)C(CCSC[C@H]1OC(n2ccc3c(N)ncnc32)[C@H](O)[C@@H]1O)NC(=O)COC (some centres undefined) ; MIC = 20 µg/mL

Entry Nc1ncnc2c1ncn2[C@@H]1O[C@H](CSCCC(N)C(=O)O)C[C@H]1O (some centres undefined) ; MIC = > 200 µg/mL

Entry CC(C)(C)C(=O)ONC(CCSC[C@H]1OC(n2ccc3c(N)ncnc32)[C@H](O)[C@@H]1O)C(=O)O (some centres undefined) ; MIC = > 400 µg/mL

Entry `Nc1ncnc2c1ncn2[C@H]1C[C@H](O)[C@@H](CO)O1` ; MIC = > 200 µg/mL

====

Form field: MIC (one value per entry).
# Tested on: Poliovirus 1
# experimental details: Antiviral activity against polio virus type 1 in HeLa cell culture lines
# Assay type: functional
# conditions: Enterovirus C

Known MIC results, listed for orientation:
compound="CCOC(=O)C(CCSC[C@H]1OC(n2ccc3c(N)ncnc32)[C@H](O)[C@@H]1O)NC(C)=O (stereo not given in full)" experimental_system="Poliovirus 1" reported_measurement="70 µg/mL"
compound="COC(=O)C(N)CCSC[C@H]1OC(n2ccc3c(N)ncnc32)[C@H](O)[C@@H]1O (stereo not given in full)" experimental_system="Poliovirus 1" reported_measurement="> 200 µg/mL"
compound="CCOC(=O)C(CCSC[C@H]1OC(n2ccc3c(N)ncnc32)[C@H](O)[C@@H]1O)NC(=O)COC (stereo not given in full)" experimental_system="Poliovirus 1" reported_measurement="> 200 µg/mL"
compound="CCOC(=O)C(CCSC[C@H]1OC(n2ccc3c(N)ncnc32)[C@H](O)[C@@H]1O)NC(=O)C(F)(F)F (stereo not given in full)" experimental_system="Poliovirus 1" reported_measurement="20 µg/mL"

Turning now to a further record.
Entry `Nc1ncnc2c1ccn2[C@@H]1O[C@H](CO)[C@@H](O)[C@H]1O` ; MIC = 0.2 µg/mL

====

Form field: MIC (one value per entry).
# Tested on: Semliki Forest virus
# experimental details: Antiviral activity against semliki forest virus (SFV) in Vero cell culture lines
# Type: functional

Known MIC results, listed for orientation:
compound=Nc1nccc2c1ncn2[C@@H]1O[C@H](CO)C[C@H]1O reported_measurement="> 100 µg/mL"
compound="CC(C)OC(=O)C(N)CCSC[C@H]1OC(n2ccc3c(N)ncnc32)[C@H](O)[C@@H]1O (stereo not given in full)" reported_measurement="> 100 µg/mL"
compound="CCOC(=O)C(CCSC[C@H]1OC(n2ccc3c(N)ncnc32)[C@H](O)[C@@H]1O)NC(=O)COC (stereo not given in full)" reported_measurement="> 400 µg/mL"

Entry CCOC(=O)C(CCSC[C@H]1OC(n2ccc3c(N)ncnc32)[C@H](O)[C@@H]1O)NC(=O)C(F)(F)F (stereo not given in full) ; MIC = > 40 µg/mL

Entry CCCOC(=O)C(CCSC[C@H]1OC(n2ccc3c(N)ncnc32)[C@H](O)[C@@H]1O)NC(=O)C(F)(F)F (stereo not given in full) ; MIC = > 200 µg/mL

Source listed as ChEMBL document CHEMBL1126104.
